# system: PAK1 (Homo sapiens, UniProt Q13153)
# Construct: purchased Reaction Biology Europe GmbH
# Sequence (Q13153 whole entry): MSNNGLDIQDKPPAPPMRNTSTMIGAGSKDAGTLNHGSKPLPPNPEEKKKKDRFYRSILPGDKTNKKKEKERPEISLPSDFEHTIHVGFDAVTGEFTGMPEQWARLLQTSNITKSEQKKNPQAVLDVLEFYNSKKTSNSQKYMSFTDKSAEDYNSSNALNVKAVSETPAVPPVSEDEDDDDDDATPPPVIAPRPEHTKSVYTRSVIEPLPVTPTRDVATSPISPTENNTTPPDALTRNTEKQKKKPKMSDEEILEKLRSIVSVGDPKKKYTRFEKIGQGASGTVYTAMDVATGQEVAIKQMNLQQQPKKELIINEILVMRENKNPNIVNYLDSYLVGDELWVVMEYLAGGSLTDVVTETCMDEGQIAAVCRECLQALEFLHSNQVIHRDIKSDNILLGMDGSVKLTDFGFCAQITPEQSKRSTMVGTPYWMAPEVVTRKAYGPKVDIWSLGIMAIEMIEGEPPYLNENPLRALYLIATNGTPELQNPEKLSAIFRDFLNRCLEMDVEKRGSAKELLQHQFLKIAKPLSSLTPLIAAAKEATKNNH
# measurement_description: PanQinase kinase panel: PAK1
# Assay type: biochemical
# condition_description: read-out: INHIBITORY EFFECT @ 1 uM: PAK1
property: inhibition at 1 µM

// solved cases for inhibition at 1 µM follow
compound: Cc1cccnc1[C@H]1CCC[C@@H](c2ncccc2C)N1CCN1CCN(C(=O)c2ccc(-c3cc4c(-c5cccc(NC(=O)c6ccccc6)c5C)ncnc4[nH]3)cc2)CC1 [Compound I-10]
result: < 50%

compound: O=C(c1ccc(Oc2ccccc2)cc1Cl)c1c[nH]c2ncnc(N[C@@H]3CC[C@@H](CO)OC3)c12 [ARQ-531]
result: 50 to 69%

compound: C=CC(=O)N1CCC([C@@H]2CCNc3c(C(N)=O)c(-c4ccc(Oc5ccccc5)cc4)nn32)CC1 [Zanubrutinib]
result: < 50%

Ask: Endpoint output: inhibition at 1 µM of COc1ccc(F)cc1C(=O)NCc1ccc(-c2nn([C@@H](C)C(F)(F)F)c(N)c2C(N)=O)cc1 [LOXO-305, pirtobrutinib] . Value?
Reply: < 50%

---

# system: CXCR4 (Homo sapiens, UniProt P61073)
# Sequence (P61073 whole entry): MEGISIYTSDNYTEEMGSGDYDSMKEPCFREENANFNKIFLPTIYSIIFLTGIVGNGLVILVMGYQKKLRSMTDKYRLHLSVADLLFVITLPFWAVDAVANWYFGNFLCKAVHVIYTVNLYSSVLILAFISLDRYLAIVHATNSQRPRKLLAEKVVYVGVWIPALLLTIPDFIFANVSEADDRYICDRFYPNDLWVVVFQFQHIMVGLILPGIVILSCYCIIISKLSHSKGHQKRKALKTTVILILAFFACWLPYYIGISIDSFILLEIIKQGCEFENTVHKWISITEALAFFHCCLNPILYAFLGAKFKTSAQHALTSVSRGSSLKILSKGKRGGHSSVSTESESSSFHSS
# measurement_description: Intracellular CXCL-12-induced calcium mobilization assay (FLIPR), U87.CXCR4 cells
# Type: cell-based
# Set-up: expressed in transfected cells; host or cells: U87 (U87.CXCR4)
# condition_description: CXCL-12 25-50 ng/ml, read-out: IC50 CXCL-12 Ca2+ flux U87.CXCR4+
Assignment: determine reported IC50 for the given molecules.

structure_smiles_string: Cc1cc(-c2ccnc(Nc3cnn(CCCN4[C@@H](c5ncccc5C)CCC[C@H]4c4ncccc4C)c3)n2)ccc1CNC(=O)N1CC(OC(C)C)C1
IC50: 1 to 2.5 µM
//
structure_smiles_string: Cc1cccnc1[C@H]1CCC[C@@H](c2ncccc2C)N1CCN1CCN(C(=O)c2ccc(-c3cc4c(-c5cccc(NC(=O)c6ccc(C(C)C)cc6)c5C)ncnc4[nH]3)cc2)CC1
IC50: > 2.5 µM

Shift focus to the following entry.
Ask: Would you mind telling me what IC50 value was observed for "Cc1cccnc1[C@H]1CCC[C@@H](c2ncccc2C)N1CCCCNC[C@@H]1CC[C@@H](Nc2ncnc3[nH]cc(C(=O)c4ccc(Oc5ccccc5)cc4Cl)c23)CO1" ?
Reply: > 2.5 µM

---

# system: EPHB2 (Homo sapiens)
# Construct: purchased Reaction Biology Europe GmbH
# measurement_description: PanQinase kinase panel: EPHB2
# Format: biochemical
# condition_description: read-out: INHIBITORY EFFECT @ 1 uM: EPHB2
property: inhibition at 1 µM

In the examples that follow, each entry is paired with its recorded inhibition at 1 µM.
structure_smiles_string: Cc1cccnc1[C@H]1CCC[C@@H](c2ncccc2C)N1CCN1CCN(C(=O)c2ccc(-c3cc4c(-c5cccc(NC(=O)c6ccccc6)c5C)ncnc4[nH]3)cc2)CC1
inhibition at 1 µM: < 50%
--
structure_smiles_string: O=C(c1ccc(Oc2ccccc2)cc1Cl)c1c[nH]c2ncnc(N[C@@H]3CC[C@@H](CO)OC3)c12
inhibition at 1 µM: 70 to 89%
--
structure_smiles_string: C=CC(=O)N1CCC([C@@H]2CCNc3c(C(N)=O)c(-c4ccc(Oc5ccccc5)cc4)nn32)CC1
inhibition at 1 µM: < 50%

# input for lookup
Ask: // fetch EPHB2 (Homo sapiens) inhibition at 1 µM for "COc1ccc(F)cc1C(=O)NCc1ccc(-c2nn([C@@H](C)C(F)(F)F)c(N)c2C(N)=O)cc1"
Reply: < 50%

---

# system: p38beta (Homo sapiens, UniProt Q15759)
# Construct: purchased Reaction Biology Europe GmbH
# Sequence (Q15759 whole entry): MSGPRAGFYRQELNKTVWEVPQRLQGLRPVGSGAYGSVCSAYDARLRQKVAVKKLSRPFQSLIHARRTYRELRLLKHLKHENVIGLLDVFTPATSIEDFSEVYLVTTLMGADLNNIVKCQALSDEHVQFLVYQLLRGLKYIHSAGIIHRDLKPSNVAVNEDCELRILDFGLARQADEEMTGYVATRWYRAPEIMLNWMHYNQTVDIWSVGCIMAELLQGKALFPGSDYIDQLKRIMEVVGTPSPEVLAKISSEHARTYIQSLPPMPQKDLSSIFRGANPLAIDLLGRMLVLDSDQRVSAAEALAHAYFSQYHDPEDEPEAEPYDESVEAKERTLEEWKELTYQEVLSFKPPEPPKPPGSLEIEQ
# measurement_description: PanQinase kinase panel: p38beta
# Type: biochemical
# condition_description: read-out: INHIBITORY EFFECT @ 1 uM: p38beta
property: inhibition at 1 µM

A selection of reference data follows.
structure_smiles_string: COc1ccc(F)cc1C(=O)NCc1ccc(-c2nn([C@@H](C)C(F)(F)F)c(N)c2C(N)=O)cc1
property: inhibition at 1 µM
result: < 50%
--
structure_smiles_string: C=CC(=O)N1CCC([C@@H]2CCNc3c(C(N)=O)c(-c4ccc(Oc5ccccc5)cc4)nn32)CC1
property: inhibition at 1 µM
result: < 50%
--
structure_smiles_string: O=C(c1ccc(Oc2ccccc2)cc1Cl)c1c[nH]c2ncnc(N[C@@H]3CC[C@@H](CO)OC3)c12
property: inhibition at 1 µM
result: 70 to 89%

Ask: Any idea what inhibition at 1 µM was measured for "Cc1cccnc1[C@H]1CCC[C@@H](c2ncccc2C)N1CCN1CCN(C(=O)c2ccc(-c3cc4c(-c5cccc(NC(=O)c6ccccc6)c5C)ncnc4[nH]3)cc2)CC1" ?
Reply: < 50%

---

# system: MAP4K5 (Homo sapiens)
# Construct: purchased Reaction Biology Europe GmbH
# Sequence (Q9Y4K4 whole entry): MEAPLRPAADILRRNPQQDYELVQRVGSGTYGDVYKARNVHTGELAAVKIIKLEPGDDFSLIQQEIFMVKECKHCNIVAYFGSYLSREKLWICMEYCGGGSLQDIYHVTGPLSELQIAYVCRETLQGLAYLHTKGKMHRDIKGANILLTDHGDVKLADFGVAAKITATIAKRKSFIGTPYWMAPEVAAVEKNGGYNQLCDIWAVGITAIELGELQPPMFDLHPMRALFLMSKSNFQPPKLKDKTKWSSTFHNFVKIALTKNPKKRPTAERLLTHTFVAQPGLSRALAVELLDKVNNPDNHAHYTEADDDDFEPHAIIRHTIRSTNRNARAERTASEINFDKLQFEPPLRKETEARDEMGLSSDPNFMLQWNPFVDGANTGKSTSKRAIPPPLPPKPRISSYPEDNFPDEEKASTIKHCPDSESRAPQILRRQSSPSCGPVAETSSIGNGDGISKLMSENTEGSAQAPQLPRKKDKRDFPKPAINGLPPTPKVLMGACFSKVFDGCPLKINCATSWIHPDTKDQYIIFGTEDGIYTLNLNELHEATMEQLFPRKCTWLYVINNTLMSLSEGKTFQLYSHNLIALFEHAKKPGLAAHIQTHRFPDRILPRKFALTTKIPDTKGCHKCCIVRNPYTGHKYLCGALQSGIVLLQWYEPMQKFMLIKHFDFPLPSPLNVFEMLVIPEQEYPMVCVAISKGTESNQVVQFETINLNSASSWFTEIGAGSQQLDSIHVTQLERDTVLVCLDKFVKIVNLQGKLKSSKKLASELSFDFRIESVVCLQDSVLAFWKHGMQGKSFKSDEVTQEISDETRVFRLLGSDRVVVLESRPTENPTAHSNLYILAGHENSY
# measurement_description: PanQinase kinase panel: MAP4K5
# Assay type: biochemical
# condition_description: read-out: INHIBITORY EFFECT @ 1 uM: MAP4K5
Answer each item with its documented inhibition at 1 µM.

Before answering, review these 3 worked examples.
structure_smiles_string: Cc1cccnc1[C@H]1CCC[C@@H](c2ncccc2C)N1CCN1CCN(C(=O)c2ccc(-c3cc4c(-c5cccc(NC(=O)c6ccccc6)c5C)ncnc4[nH]3)cc2)CC1
system: MAP4K5 (Homo sapiens)
result: < 50%
--
structure_smiles_string: C=CC(=O)N1CCC([C@@H]2CCNc3c(C(N)=O)c(-c4ccc(Oc5ccccc5)cc4)nn32)CC1
system: MAP4K5 (Homo sapiens)
result: < 50%
--
structure_smiles_string: COc1ccc(F)cc1C(=O)NCc1ccc(-c2nn([C@@H](C)C(F)(F)F)c(N)c2C(N)=O)cc1
system: MAP4K5 (Homo sapiens)
result: < 50%

Then there is this molecule:
Ask: Find the recorded inhibition at 1 µM belonging to "O=C(c1ccc(Oc2ccccc2)cc1Cl)c1c[nH]c2ncnc(N[C@@H]3CC[C@@H](CO)OC3)c12" and report it.
Reply: 50 to 69%

---

# system: FGR (Homo sapiens)
# Construct: purchased Reaction Biology Europe GmbH
# Sequence (P09769 whole entry): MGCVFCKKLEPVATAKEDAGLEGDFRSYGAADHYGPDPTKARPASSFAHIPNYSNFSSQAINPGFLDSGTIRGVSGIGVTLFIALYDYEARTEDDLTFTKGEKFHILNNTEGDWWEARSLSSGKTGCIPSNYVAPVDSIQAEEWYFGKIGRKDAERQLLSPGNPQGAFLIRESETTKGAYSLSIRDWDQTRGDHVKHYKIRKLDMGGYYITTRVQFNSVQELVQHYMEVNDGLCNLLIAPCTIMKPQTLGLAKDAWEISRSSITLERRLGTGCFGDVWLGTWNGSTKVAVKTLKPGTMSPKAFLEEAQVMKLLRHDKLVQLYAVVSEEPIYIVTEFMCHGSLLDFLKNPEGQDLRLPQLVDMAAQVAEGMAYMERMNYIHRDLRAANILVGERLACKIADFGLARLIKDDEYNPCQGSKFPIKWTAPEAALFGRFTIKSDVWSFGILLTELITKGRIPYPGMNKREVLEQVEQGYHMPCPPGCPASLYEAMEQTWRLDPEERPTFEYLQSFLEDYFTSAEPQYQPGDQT
# measurement_description: PanQinase kinase panel: FGR
# Type: biochemical
# condition_description: read-out: INHIBITORY EFFECT @ 1 uM: FGR
property: inhibition at 1 µM

// worked examples, inhibition at 1 µM included
compound: Cc1cccnc1[C@H]1CCC[C@@H](c2ncccc2C)N1CCN1CCN(C(=O)c2ccc(-c3cc4c(-c5cccc(NC(=O)c6ccccc6)c5C)ncnc4[nH]3)cc2)CC1 [Compound I-10]
inhibition at 1 µM: < 50%

compound: O=C(c1ccc(Oc2ccccc2)cc1Cl)c1c[nH]c2ncnc(N[C@@H]3CC[C@@H](CO)OC3)c12 [ARQ-531]
inhibition at 1 µM: 70 to 89%

compound: COc1ccc(F)cc1C(=O)NCc1ccc(-c2nn([C@@H](C)C(F)(F)F)c(N)c2C(N)=O)cc1 [LOXO-305, pirtobrutinib]
inhibition at 1 µM: < 50%

Here is another compound to look at.
Ask: Return inhibition at 1 µM measured with FGR (Homo sapiens) given this compound: C=CC(=O)N1CCC([C@@H]2CCNc3c(C(N)=O)c(-c4ccc(Oc5ccccc5)cc4)nn32)CC1 [Zanubrutinib]
Reply: < 50%

---

# system: INSRR (Homo sapiens, UniProt P14616)
# Construct: purchased Reaction Biology Europe GmbH
# Sequence (P14616 27-1297): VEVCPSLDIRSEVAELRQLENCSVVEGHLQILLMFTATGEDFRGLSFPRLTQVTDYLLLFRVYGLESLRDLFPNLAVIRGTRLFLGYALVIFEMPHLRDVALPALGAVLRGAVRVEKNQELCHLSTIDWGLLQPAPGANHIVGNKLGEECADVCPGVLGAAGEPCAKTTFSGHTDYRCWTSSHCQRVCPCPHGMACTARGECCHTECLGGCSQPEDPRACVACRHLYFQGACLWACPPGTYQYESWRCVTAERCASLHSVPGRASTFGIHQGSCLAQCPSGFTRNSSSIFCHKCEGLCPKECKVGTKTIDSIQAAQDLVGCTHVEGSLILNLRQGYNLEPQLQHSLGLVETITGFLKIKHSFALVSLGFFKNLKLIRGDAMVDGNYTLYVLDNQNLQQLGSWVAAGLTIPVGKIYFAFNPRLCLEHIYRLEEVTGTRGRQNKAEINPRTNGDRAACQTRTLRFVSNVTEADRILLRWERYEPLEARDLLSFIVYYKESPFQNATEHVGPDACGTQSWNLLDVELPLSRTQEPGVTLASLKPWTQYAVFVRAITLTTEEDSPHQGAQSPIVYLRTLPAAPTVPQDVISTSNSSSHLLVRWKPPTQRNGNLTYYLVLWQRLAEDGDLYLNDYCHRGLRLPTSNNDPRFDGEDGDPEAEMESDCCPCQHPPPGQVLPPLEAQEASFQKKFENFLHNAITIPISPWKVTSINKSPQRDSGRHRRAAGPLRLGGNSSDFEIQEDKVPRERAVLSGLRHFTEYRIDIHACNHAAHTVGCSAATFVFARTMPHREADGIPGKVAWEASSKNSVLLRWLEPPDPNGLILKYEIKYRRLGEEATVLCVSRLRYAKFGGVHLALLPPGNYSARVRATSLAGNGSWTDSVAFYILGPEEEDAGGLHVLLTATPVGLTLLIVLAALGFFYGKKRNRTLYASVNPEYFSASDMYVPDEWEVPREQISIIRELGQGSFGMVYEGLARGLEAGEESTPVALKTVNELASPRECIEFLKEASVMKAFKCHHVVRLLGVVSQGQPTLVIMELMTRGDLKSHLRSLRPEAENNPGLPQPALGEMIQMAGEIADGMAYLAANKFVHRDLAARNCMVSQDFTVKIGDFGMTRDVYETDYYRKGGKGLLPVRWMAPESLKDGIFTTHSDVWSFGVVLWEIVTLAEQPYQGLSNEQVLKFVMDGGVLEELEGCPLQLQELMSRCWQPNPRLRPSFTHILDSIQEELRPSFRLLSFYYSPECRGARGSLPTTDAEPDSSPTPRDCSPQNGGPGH
# measurement_description: PanQinase kinase panel: INSRR
# Type: biochemical
# condition_description: read-out: INHIBITORY EFFECT @ 1 uM: INSRR
property: inhibition at 1 µM

Some solved entries appear below for comparison.
compound: COc1ccc(F)cc1C(=O)NCc1ccc(-c2nn([C@@H](C)C(F)(F)F)c(N)c2C(N)=O)cc1 [LOXO-305, pirtobrutinib]
system: INSRR (Homo sapiens, UniProt P14616)
inhibition at 1 µM: < 50%

compound: O=C(c1ccc(Oc2ccccc2)cc1Cl)c1c[nH]c2ncnc(N[C@@H]3CC[C@@H](CO)OC3)c12 [ARQ-531]
system: INSRR (Homo sapiens, UniProt P14616)
inhibition at 1 µM: 90 to 100%

compound: Cc1cccnc1[C@H]1CCC[C@@H](c2ncccc2C)N1CCN1CCN(C(=O)c2ccc(-c3cc4c(-c5cccc(NC(=O)c6ccccc6)c5C)ncnc4[nH]3)cc2)CC1 [Compound I-10]
system: INSRR (Homo sapiens, UniProt P14616)
inhibition at 1 µM: < 50%

Ask: Requested field: inhibition at 1 µM. Item: C=CC(=O)N1CCC([C@@H]2CCNc3c(C(N)=O)c(-c4ccc(Oc5ccccc5)cc4)nn32)CC1 [Zanubrutinib]
Reply: < 50%

---

I'd appreciate it if you could supply inhibition at 1 µM values for the items below.
# system: PAK3 (Homo sapiens, UniProt O75914)
# Construct: purchased Reaction Biology Europe GmbH
# Sequence (O75914 whole entry): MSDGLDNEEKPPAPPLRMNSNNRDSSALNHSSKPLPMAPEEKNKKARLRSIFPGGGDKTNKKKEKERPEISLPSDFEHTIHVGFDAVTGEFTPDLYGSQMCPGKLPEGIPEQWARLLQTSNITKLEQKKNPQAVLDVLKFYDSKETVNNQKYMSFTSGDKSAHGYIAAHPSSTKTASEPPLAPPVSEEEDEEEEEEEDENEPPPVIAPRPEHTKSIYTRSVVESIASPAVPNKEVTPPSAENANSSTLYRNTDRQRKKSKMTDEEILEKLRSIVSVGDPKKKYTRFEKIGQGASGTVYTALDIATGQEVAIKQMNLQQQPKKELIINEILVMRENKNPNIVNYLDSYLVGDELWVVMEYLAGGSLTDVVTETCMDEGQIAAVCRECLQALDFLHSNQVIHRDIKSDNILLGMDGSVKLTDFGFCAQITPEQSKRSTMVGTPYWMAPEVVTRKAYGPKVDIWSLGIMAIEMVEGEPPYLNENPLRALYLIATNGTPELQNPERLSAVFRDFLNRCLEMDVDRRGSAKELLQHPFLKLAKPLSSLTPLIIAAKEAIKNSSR
# measurement_description: PanQinase kinase panel: PAK3
# Format: biochemical
# condition_description: read-out: INHIBITORY EFFECT @ 1 uM: PAK3

structure_smiles_string: Cc1cccnc1[C@H]1CCC[C@@H](c2ncccc2C)N1CCN1CCN(C(=O)c2ccc(-c3cc4c(-c5cccc(NC(=O)c6ccccc6)c5C)ncnc4[nH]3)cc2)CC1
result: < 50%

Items follow; give inhibition at 1 µM for each.
1. O=C(c1ccc(Oc2ccccc2)cc1Cl)c1c[nH]c2ncnc(N[C@@H]3CC[C@@H](CO)OC3)c12
2. C=CC(=O)N1CCC([C@@H]2CCNc3c(C(N)=O)c(-c4ccc(Oc5ccccc5)cc4)nn32)CC1
3. COc1ccc(F)cc1C(=O)NCc1ccc(-c2nn([C@@H](C)C(F)(F)F)c(N)c2C(N)=O)cc1

Reply:
1: 90 to 100%; 2: < 50%; 3: < 50%
